Data provenance: ChEMBL document CHEMBL1157539

- System: HepG2
- Protocol details: GSK_TCMDC: Percent inhibition of human HepG2 cell line. Test compounds present at 10uM.
- Type: functional
Test readout: Inhibition (%)
Response body: numeric value in %, unit text excluded.

Sample answers from the record:
# Compound, Readout units, Inhibition
data = [
    ("CCc1nc2ccc(C(=O)OC)nc2n1Cc1ccc2oc(-c3ccccc3N)c(Br)c2c1", "%", 8),
    ("CCN(CC)CCCC(C)Nc1c(-c2ccc(C)cc2)cnc2ccccc12 (centres undefined)", "%", 8),
    ("CC(=O)Nc1ccc(OCCN(CC(C)C)c2ccc(C(F)(F)F)c(C#N)c2)c(Cl)c1", "%", 13),
]

Request: Kindly indicate its recorded Inhibition. Item: Cc1ccc(C(=O)Nc2ccc(F)cc2)cc1-c1nc(NC2CC(C)(C)NC(C)(C)C2)nc2c1ccc(=O)n2-c1c(F)cccc1F
Result: 16

Request: Kindly indicate its recorded Inhibition. Item: CCS(=O)(=O)c1ccc(OC)c(Nc2nccc(-c3c(-c4cccc(NC(=O)c5c(F)cccc5F)c4)nn4ncccc34)n2)c1
Result: 27

Request: Kindly indicate its recorded Inhibition. Item: O=C(/C=C/c1ccc(Cl)c(Cl)c1)NCCCCCN1CCC(NC(=O)Nc2cccc(Cl)c2)CC1
Result: 52

Request: Kindly indicate its recorded Inhibition. Item: N=C(N)Nc1nc(-c2cccc(NCCCCCCCCON3C(N)=NC(N)=NC34CCCCC4)c2)cs1.O=C(O)C(F)(F)F
Result: 3

Request: Kindly indicate its recorded Inhibition. Item: COc1cc(OC)nc(C(Sc2ccc(NC(=O)c3cccs3)cc2)c2ccccc2)n1 (centres undefined)
Result: 7

Request: Kindly indicate its recorded Inhibition. Item: CC(=O)Nc1ccc(C(=O)Nc2ccc(-c3cccc(-c4nc5cc(C(F)(F)F)ccc5[nH]4)c3)cc2)cn1
Result: 29

Request: Kindly indicate its recorded Inhibition. Item: O=C(N[C@@H](Cc1ccccc1)C(=O)O)c1cc(-c2ccc(F)cc2)no1.O=C(N[C@@H](Cc1ccccc1)C(=O)O)c1conc1-c1ccc(F)cc1
Result: 0

Request: Kindly indicate its recorded Inhibition. Item: CC(=O)N1N=C(c2ccccc2)Sc2c1nc(-c1ccc(Cl)cc1)n2C(C)=O
Result: 0

Request: Kindly indicate its recorded Inhibition. Item: O=C(Nc1cccc(F)c1)N[C@H]1CCN(CCCCCNC(=O)C2CC2c2ccc(Cl)c(Cl)c2)C1 (some centres undefined)
Result: 41

Request: Kindly indicate its recorded Inhibition. Item: O=S(=O)(c1cccc(C(F)(F)F)c1)N1CCC(CO)(Cc2cccc(C(F)(F)F)c2)CC1
Result: 3

Request: Kindly indicate its recorded Inhibition. Item: CCOc1c(CNCCCNc2nc3ccccc3[nH]2)cc(I)cc1OC.Cl
Result: 42

Request: Kindly indicate its recorded Inhibition. Item: Br.Cn1c(=N)n(CC(=O)OCc2ccc(OCc3ccccc3)cc2)c2ccccc21
Result: 5

Request: Kindly indicate its recorded Inhibition. Item: COc1cc(NC(=O)N2CCOC(CCN3CCC(c4ccccc4)CC3)(c3ccc(Cl)c(Cl)c3)C2)cc(OC)c1 (centres undefined)
Result: 12

Request: Kindly indicate its recorded Inhibition. Item: CC(C)[C@H](NC(=O)c1ccc(O)c(-c2ccc(Cl)c(Cl)c2)c1)C(=O)NC1CCCCCC1
Result: 0

* * *

Entries and their Inhibition
- Test system: Plasmodium falciparum
- Protocol details: GSK_TCMDC: Inhibition of Plasmodium falciparum Dd2 in whole red blood cells, using parasite LDH activity as an index of growth. Test compounds present at 2uM
- Format: functional
Response body: numeric value in %, unit text excluded.

Sample answers from the record:
# Test smiles, Readout units, Inhibition
measured = [
    ("COc1ccc(-c2csc3ncnc(Cl)c23)cc1", "%", 97),
    ("COc1cc(NC(=O)/C=C/c2cc(F)cc(F)c2F)cc(OCCN2CCCCC2)c1.O=C(O)C(=O)O", "%", 80),
    ("Nc1cccc(CNCc2cccc(-c3ccc(-c4nc5ccccc5[nH]4)cc3)c2)c1.O=C(O)C(F)(F)F", "%", 92),
    ("CCN1CCC(N(Cc2ccc(-c3ccc(C(F)(F)F)cc3)cc2)C(=O)Cn2c(CCc3cccc(F)c3F)cc(=O)c3ccccc32)CC1.O=C(O)C(O)C(O)C(=O)O", "%", 94),
    ("O=C(c1ccccc1F)N(Cc1ccc(Cl)cc1)c1ccccn1", "%", 58),
]

Request: Kindly indicate its recorded Inhibition. Item: Cl.O=C(Nc1ccccc1Br)N[C@@H]1CCN(c2ccnc3ccccc23)C1
Result: 90

Request: Kindly indicate its recorded Inhibition. Item: O=C(NCc1ccc(F)cc1)c1cc(Br)cc(N2CCN(c3ccncc3)CC2)c1.O=C(O)C(F)(F)F
Result: 59

Request: Kindly indicate its recorded Inhibition. Item: O=C(Nc1cccc(-c2csc(-c3nc4ccccc4[nH]3)c2)c1)c1ccoc1
Result: 67

Request: Kindly indicate its recorded Inhibition. Item: Cc1ccc2[nH]c3c(NCCCN4CCOCC4)ncnc3c2c1
Result: 9

Request: Kindly indicate its recorded Inhibition. Item: O=C(O)C(F)(F)F.O=S(=O)(NCCN1CCCC1)c1ccc(-c2cccc(CNCc3ccccc3)c2)s1
Result: 43

* * *

Entries and their Inhibition
- Test system: HepG2
- Protocol details: GSK_TCMDC: Percent inhibition of human HepG2 cell line. Test compounds present at 10uM.
- Format: functional

Request: Kindly indicate its recorded Inhibition. Item: COc1cc(Nc2ccnc3ccc(C(F)(F)F)cc23)ccc1OCCCc1ccccc1
Result: 11%

* * *

- System: Plasmodium falciparum
- Protocol details: GSK_TCMDC: Inhibition of Plasmodium falciparum Dd2 in whole red blood cells, using parasite LDH activity as an index of growth. Test compounds present at 2uM
- Type: functional
Under this convention, Yes denotes Inhibition strictly below 50% and No denotes Inhibition at or above 50%.

Would you please look over these solved cases?
# Test smiles, Group
measured = [
    ("FC(F)(F)c1ccc2[nH]c(-c3ccc(-c4ccc(CNCc5cnn(-c6ccccc6)n5)cc4)s3)nc2c1.O=C(O)C(F)(F)F", "No"),
    ("O=C(Nc1cccc(C(F)(F)F)c1)c1cc([N+](=O)[O-])cc2cn[nH]c12", "No"),
    ("COc1cc(C(=O)Nc2nc3ccccc3[nH]2)ccc1OCC(=O)Nc1cccc(C(F)(F)F)c1", "Yes"),
    ("COc1c(C2CCN(CCCCNC(=O)C=Cc3cc4cc(Cl)ccc4o3)CC2)ccc2c1CCCC2", "Yes"),
    ("COc1ccc(CNC(=O)c2cnc3c(O)cccc3c2Nc2cccc(NC(=O)c3ccc(-c4ccccc4)cc3)c2)cc1.O=C(O)C(F)(F)F", "No"),
]

Next, consider the following molecule.
Request: Identify whether the molecule CC(=O)Nc1ccc(C(=O)Nc2cccc(-c3cccc(-c4nc5cc(C(F)(F)F)ccc5[nH]4)c3)c2)cn1 records Inhibition below 50%.
Result: No

* * *

Entries and their Inhibition
- Tested on: HepG2
- Protocol details: GSK_TCMDC: Percent inhibition of human HepG2 cell line. Test compounds present at 10uM.
- Assay type: functional
Response body: numeric value in %, unit text excluded.

Sample answers from the record:
# Compound, Target entity, Inhibition (%)
data = [
    ("Cc1cc(C)c(NC(=O)NC2CCN(CCCCCNC(=O)/C=C/c3ccc(Cl)c(Cl)c3)C2)c(C)c1 (stereo not given)", "HepG2", 23),
    ("CO/C(=C\\C=C\\c1cc2cc(Cl)c(Cl)cc2[nH]1)C(=O)NCCCNCCN(C)c1ccccc1", "HepG2", 33),
    ("COc1ccc(Nc2nc(NC3CCCC3)cc(-c3ccc(OC)cc3)n2)cc1", "HepG2", 12),
]

Request: Kindly indicate its recorded Inhibition. Item: Cc1cc(CN2CC[C@H](NC(=O)c3ccc(Cl)c(Cl)c3)C2)ccc1OC1CCN(Cc2ccccc2)CC1.O=C(O)C(F)(F)F
Result: 59

Request: Kindly indicate its recorded Inhibition. Item: O=C(/C=C/c1ccc(C(F)(F)F)cc1)NCCCCCN1CCCN(C(=O)Nc2ccc(Cl)cc2)CC1
Result: 28

* * *

Entries and their Inhibition
- Test system: Plasmodium falciparum
- Protocol details: GSK_TCMDC: Inhibition of Plasmodium falciparum Dd2 in whole red blood cells, using parasite LDH activity as an index of growth. Test compounds present at 2uM
- Type: functional
Response body: numeric value in %, unit text excluded.

# Compound, Target entity, Test readout, Reported measurement
records = [
    ("COc1ccccc1-n1c(SCC(=O)Nc2ccccc2F)nc2cccnc21", "Plasmodium falciparum", "Inhibition", 88),
]

Request: Kindly indicate its recorded Inhibition. Item: O=C(Nc1ccc(CCNCc2ccccc2)cc1)Nc1ccc(OC(F)(F)F)cc1.O=C(O)C(F)(F)F
Result: 22

Request: Kindly indicate its recorded Inhibition. Item: CCN(CC)CCN(Cc1ccc(-c2ccc(C(F)(F)F)cc2)cc1)C(=O)c1ccc(-c2ccc(NC(=O)OC)cc2C)cc1
Result: 42

Request: Kindly indicate its recorded Inhibition. Item: C=CCn1c(Sc2ccc(C#N)c([N+](=O)[O-])c2)nnc1-c1ccc(Cl)cc1
Result: 85

Request: Kindly indicate its recorded Inhibition. Item: O=C(NC1CCCCC1)N(Cc1cccc(-c2ccc(CNCCc3ccccc3)cc2)c1)C1CCN(Cc2ccccc2)CC1.O=C(O)C(F)(F)F
Result: 93

Request: Kindly indicate its recorded Inhibition. Item: O=C(O)C(F)(F)F.OCCN1CCN(Cc2cccc(-c3ccc(-c4nc5cc(C(F)(F)F)ccc5[nH]4)s3)c2)CC1
Result: 98

Request: Kindly indicate its recorded Inhibition. Item: O=C(Nc1ccc2ccccc2c1)N(CCCn1ccnc1)Cc1csc(-c2ccc(CNCc3ccccc3)cc2)n1.O=C(O)C(F)(F)F
Result: 53

Request: Kindly indicate its recorded Inhibition. Item: COc1ccc(N2CCN(CCCCNC(=O)c3ccc(NC(=O)c4ccc(Cl)cc4)cc3)CC2)c(OC)c1.Cl
Result: 22

Request: Kindly indicate its recorded Inhibition. Item: CN1CCCc2cc(NC(=O)C=Cc3ccc(-c4ccc(F)cc4F)o3)ccc2C1.O=C(O)C(F)(F)F
Result: 27

Request: Kindly indicate its recorded Inhibition. Item: Cc1cc(NC(=O)Nc2ccc(C#N)cc2)c2ccccc2n1
Result: 49
